Biological target: Estrogen receptor (Homo sapiens)
Experiment: qHTS assay to identify small molecule antagonists of the estrogen receptor alpha (ER-alpha) signaling pathway (AID 743069)
Details: HEK293 ER-alpha-UAS-bla, beta-lactamase ratio, antagonist mode; series mostly up to 69.4 µM
Activity calls are given as the source filed them. The call rests on the fitted dose curve; in most records, active means well fitted curve in the direction sought with a large enough effect in the signal ratio in the repeat runs (not every such curve was filed as active); inconclusive means weak or mixed curves, or effect the other way; inactive means no such curve, though single readings can be large or run the other way; the % refers to the signal ratio.
Entry note: the call must match one of active, inactive

[
  {
    "MOLECULE": "C[C@H](/C=C/[C@H](C)C(C)(C)O)[C@H]1CC[C@H]2/C(=C/C=C3C[C@@H](O)C[C@H](O)C3)CCC[C@]12C",
    "CLASS_NAME": "active"
  },
  {
    "MOLECULE": "C[C@@H]1CCC2[C@@H](C)[C@@H](O)O[C@@H]3O[C@@]4(C)CC[C@@H]1[C@@]23OO4 (some centres not stated)",
    "CLASS_NAME": "active"
  },
  {
    "MOLECULE": "CCCCCCCCCCCCCCCCCC[N+](C)(C)CCC[Si](OC)(OC)OC",
    "CLASS_NAME": "inactive"
  },
  {
    "MOLECULE": "CC(C)(CO)[C@@H](O)C(=O)NCCCC(=O)O",
    "CLASS_NAME": "inactive"
  },
  {
    "MOLECULE": "CC1(C)N=C(N)N=C(N)N1c1ccc(Cl)cc1",
    "CLASS_NAME": "inactive"
  },
  {
    "MOLECULE": "CCOC(=O)CCC(=O)O[C@H]1[C@H](O[C@@H]2[C@@H](C)[C@H](O[C@H]3C[C@@](C)(OC)[C@@H](O)[C@H](C)O3)[C@@H](C)C(=O)O[C@H](CC)[C@@](C)(O)[C@H](O)[C@@H](C)C(=O)[C@H](C)C[C@@]2(C)O)O[C@H](C)C[C@@H]1N(C)C",
    "CLASS_NAME": "inactive"
  }
]

Shift focus to the following entry.
What did this assay record as the result for CCCC(=O)Nc1c(I)cc(I)c(CC(CC)C(=O)O)c1I (configuration not stated) ?
inactive
